Assay: in vivo
Settings: CD1 nude, mouse, 0.5 nmol/mouse, total radioactivity, Liver uptake
attribute-measured: tissue uptake at 48 h (%ID/g)
Answer in %ID/g, number only, no unit symbol.

Measured tissue uptake at 48 h of Cc1ccc(CCCC(=O)NCCOCCOCCOCCOCCC(=O)NCCCC[C@H](NC(=O)CN2CCN(CC(=O)O)CCN(CC(=O)O)CCN(CC(=O)O)CC2)C(=O)N[C@@H](CC(=O)O)C(=O)N[C@@H](CC2CCCCC2)C(=O)N[C@@H](Cc2ccccc2)C(=O)N[C@H](CO)C(=O)N[C@H](CCCNC(=N)N)C(=O)N[C@@H](Cc2ccc(O)cc2)C(=O)N[C@@H](CC(C)C)C(=O)N[C@@H](Cc2c[nH]c3ccccc23)C(=O)N[C@@H](CO)C(N)=O)cc1 [[^177Lu]Lu-uPAR-11, metal not drawn] : 0.25
